Target System: PCSK9 (Homo sapiens, UniProt Q8NBP7)
Sequence (Q8NBP7 153-692): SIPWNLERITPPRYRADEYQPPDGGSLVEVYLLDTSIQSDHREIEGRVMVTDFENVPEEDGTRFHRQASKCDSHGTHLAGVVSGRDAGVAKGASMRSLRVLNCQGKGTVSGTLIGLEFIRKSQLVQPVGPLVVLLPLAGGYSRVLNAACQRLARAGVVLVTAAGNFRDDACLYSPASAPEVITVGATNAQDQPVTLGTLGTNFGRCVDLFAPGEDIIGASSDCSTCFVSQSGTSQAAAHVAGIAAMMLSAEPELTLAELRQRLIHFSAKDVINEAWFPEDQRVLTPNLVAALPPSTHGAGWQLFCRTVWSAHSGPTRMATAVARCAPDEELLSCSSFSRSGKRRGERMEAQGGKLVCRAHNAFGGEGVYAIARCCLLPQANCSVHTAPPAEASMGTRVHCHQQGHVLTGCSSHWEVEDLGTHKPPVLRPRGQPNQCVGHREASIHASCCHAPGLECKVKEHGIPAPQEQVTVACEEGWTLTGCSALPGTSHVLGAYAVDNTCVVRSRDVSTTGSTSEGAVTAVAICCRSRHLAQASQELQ
Protocol Details: PCSK9 Alexa FRET Standard assay (displacement of AlexaFluor647 tagged cyclic peptide Reagent A)
Format: binding
Test Context: 0.5 nM PCSK9, 20 nM AF cyclic peptide Reagent A
pIC50: −log10 of the molar value. Numbered stars: 1 amine (or outer) side, 2 acyl side, 3 side chain; on linkers, the order of the positions; unused ones are H or OH. Bridge positions count the residues as written; N and C are the ends. Square brackets hold non-standard residues; d marks the D form. Peptide text beside a SMILES is read from it. Trp(5-F) = N[C@@H](Cc1c[nH]c2ccc(F)cc12)C(=O)O; Trp(7-aza) = N[C@@H](Cc1c[nH]c2ncccc12)C(=O)O; mXylylene = c1cc(C[*:1])cc(C[*:2])c1; Tle = CC(C)(C)[C@H](N)C(=O)O; Nva = CCC[C@H](N)C(=O)O; Aib = CC(C)(N)C(=O)O; Mpa = O=C(O)CCS
Give measured pIC50 for each item. Keep answers brief.

// returns reported pIC50 for input CCC[C@@H]1NC(=O)[C@H](Cc2c[nH]c3ncccc23)NC(=O)[C@H]([C@@H](C)O)NC(=O)[C@H](Cc2c[nH]cn2)NC(=O)[C@H](Cc2ccc(O)cc2)NC(=O)[C@H](C(C)(C)C)NC(=O)CCSCc2cccc(c2)CSC[C@@H](C(N)=O)NC(=O)[C@H]([C@@H](C)O)NC(=O)[C@H](CCC)NC(=O)[C@H](Cc2c[nH]c3ccc(F)cc23)NC(=O)[C@H](CCC(=O)O)NC1=O [Compound 261] ([Mpa][Tle]YHT[Trp(7-aza)][Nva]E[Trp(5-F)][Nva]TC-NH2; linker 1-12 via mXylylene)
4.68 to 6.00

// returns reported pIC50 for input CCC[C@@H]1NC(=O)[C@H](Cc2c[nH]c3ncccc23)NC(=O)[C@H]([C@@H](C)O)NC(=O)C(C)(C)NC(=O)[C@H](Cc2ccc(O)cc2)NC(=O)[C@H](C(C)(C)C)NC(=O)CCSCc2cccc(c2)CSC[C@@H](C(N)=O)NC(=O)[C@H]([C@@H](C)O)NC(=O)[C@H](CCC)NC(=O)[C@H](Cc2ccc(O)cc2)NC(=O)[C@H](CCC(=O)O)NC1=O [Compound 005] ([Mpa][Tle]Y[Aib]T[Trp(7-aza)][Nva]EY[Nva]TC-NH2; linker 1-12 via mXylylene)
4.30 to 4.68

----------
Target System: PCSK9 (Homo sapiens, UniProt Q8NBP7)
Protocol Details: PCSK9 Alexa FRET Standard assay (displacement of AlexaFluor647 tagged cyclic peptide Reagent A)
Assay type: binding
Test Context: 0.5 nM PCSK9, 20 nM AF cyclic peptide Reagent A
Numbered stars: 1 amine (or outer) side, 2 acyl side, 3 side chain; on linkers, the order of the positions; unused ones are H or OH. Bridge positions count the residues as written; N and C are the ends. Square brackets hold non-standard residues; d marks the D form. Peptide text beside a SMILES is read from it. Trp(7-aza) = N[C@@H](Cc1c[nH]c2ncccc12)C(=O)O; Phe(4-F) = N[C@@H](Cc1ccc(F)cc1)C(=O)O; mXylylene = c1cc(C[*:1])cc(C[*:2])c1; Tle = CC(C)(C)[C@H](N)C(=O)O; Nva = CCC[C@H](N)C(=O)O; Mpa = O=C(O)CCS
Measurement Type: IC50

// returns reported IC50 for input CCC[C@@H]1NC(=O)[C@H](Cc2ccc(O)cc2)NC(=O)[C@H](CCC(=O)O)NC(=O)[C@H](Cc2c[nH]c3ncccc23)NC(=O)[C@H]([C@@H](C)O)NC(=O)[C@H](Cc2c[nH]cn2)NC(=O)[C@H](Cc2ccc(O)cc2)NC(=O)[C@H](C(C)(C)C)NC(=O)CCSCc2cccc(c2)CSC[C@@H](C(N)=O)NC(=O)[C@H]([C@@H](C)O)NC1=O [Compound 248] ([Mpa][Tle]YHT[Trp(7-aza)]EY[Nva]TC-NH2; linker 1-11 via mXylylene)
50 to 100 µM

// returns reported IC50 for input CCC[C@@H]1NC(=O)[C@H](Cc2ccc(O)cc2)NC(=O)[C@H](CCC(=O)O)NC(=O)[C@H](Cc2ccc(F)cc2)NC(=O)[C@H](Cc2c[nH]c3ncccc23)NC(=O)[C@H]([C@@H](C)O)NC(=O)[C@H](Cc2c[nH]cn2)NC(=O)[C@H](Cc2ccc(O)cc2)NC(=O)[C@H](C(C)(C)C)NC(=O)CCSCc2cccc(c2)CSC[C@@H](C(N)=O)NC(=O)[C@H]([C@@H](C)O)NC1=O [Compound 265] ([Mpa][Tle]YHT[Trp(7-aza)][Phe(4-F)]EY[Nva]TC-NH2; linker 1-12 via mXylylene)
1 to 21 µM

Sourced from patent US11814444B2
